Target: HLA-A*11:01 on TAP2-KO HLA class I monoallelic TISI cells (human | human (endogenous in TISI))
Test: flow cytometry on cells
metric-name: ΔHLA (% control) (%)

> print(dat)
                                     binder  unit.symbol  measured.value
1                               KAISTRDPLSK            %             127
2   VVGAAGVGK [KRAS_G12A epitope peptide …]            %             218
3   VVGACGVGK [KRAS_G12C epitope peptide …]            %             234
4   VVGASGVGK [KRAS_G12S epitope peptide …]            %             219
5                                 VVGAGDVGK            %             181
6                                VVVGAGDVGK            %             195
7  SSCMGSMNR [TP53_G245S epitope peptide …]            %             107
8                                 ISTRDPLSK            %             124
